Measured survival, listed per entry for reference.
Tested on: DeltatarO mutant
Assay: S. aureus survival, RN4220 and DeltatarO strains – OD600, teichoic acid synthesis inhibitors, primary screen (AID 463173)
Conditions: S. aureus RN4220 wild type/DeltatarO growth, OD600, 18 h, hits give low values, screened at 18.75 µg/mL (by protocol)
About 4,300 (8.3%) of roughly 52,000 compounds were called active. The list comes from a sample in which actives are over-represented; it also holds close analogues and randomly drawn compounds.

Recorded results for 3 molecules are shown here.
* CCOc1ccc(NS(=O)(=O)c2cc(Br)cc3c2N(C(=O)C2CC2)CC3)cc1 | 79% (inactive)
* CN(Cc1ccccc1)S(=O)(=O)c1cc(Br)cc2c1N(C(=O)C1CC1)CC2 | 34% (active)
* CCCCN(Cc1ccccc1)S(=O)(=O)c1cc(Br)cc2c1N(C(=O)C1CC1)CC2 | 57% (inactive)

Field: next molecule
get_value(item= "COc1cc(OC)c(NS(=O)(=O)c2cc(-c3cnc(C)o3)ccc2OC)cc1Cl" , readout=survival) returns 67% (inactive)

###

System: DeltatarO mutant
Assay: S. aureus survival, RN4220 and DeltatarO strains – OD600, teichoic acid synthesis inhibitors, primary screen (AID 463173)
Details: S. aureus RN4220 wild type/DeltatarO growth, OD600, 18 h, hits give low values, screened at 18.75 µg/mL (by protocol)
The campaign covered roughly 52,000 compounds. About 4,300 (8.3%) were called active. What follows is part of a selection rich in actives, with near analogues and random picks from the rest.
Measured survival, listed per entry for reference.
Kindly answer with a numeric value in %, unit omitted.

Recorded results for 3 molecules are shown here.
- COC(=O)c1sc2nc3ccccc3cc2c1N: 93
- O=C1/C(=C\c2cccnc2)SC(=S)N1C1CCS(=O)(=O)C1 (configuration not stated): 93
- CCN(CC)CCCNC(=O)CN1N=C(c2ccccc2)CCC1=O: 87

get_value(item= "Cc1ccc(NC(=O)CN2C(=O)C(C)(C)c3ccccc32)cc1" , readout=survival) returns 78

get_value(item= "COCCNC(=O)c1ccc(-c2nc(CS(=O)(=O)c3ccccc3)c(C)o2)cc1" , readout=survival) returns 119

get_value(item= CCC(=O)N1c2ccccc2C(C)(c2ccccc2)CC1(C)C (configuration not stated) , readout=survival) returns -8

get_value(item= COc1ccc(OC)c(NC(=O)N2CC3CCCN3c3ccccc32)c1 (configuration not stated) , readout=survival) returns 89

get_value(item= "COCCNC(=O)N1c2ccccc2Sc2ccccc21" , readout=survival) returns 83

get_value(item= "CCC(=O)N1CCN(C(=O)CC)C1c1ccccc1" , readout=survival) returns 93

###

Tested on: DeltatarO mutant
Assay: S. aureus survival, RN4220 and DeltatarO strains – OD600, teichoic acid synthesis inhibitors, primary screen (AID 463173)
Conditions: S. aureus RN4220 wild type/DeltatarO growth, OD600, 18 h, hits give low values, screened at 18.75 µg/mL (by protocol)
Among all 52,000 compounds or so, about 4,300 (8.3%) were called active. Shown is part of a subset that was picked to be rich in actives.
value.kind: survival (%)
Kindly answer with a numeric value in %, unit omitted.

Recorded results for 9 compounds are shown here.
• CCc1ccccc1NC(=O)c1cc2nc(-c3ccc(Br)cc3)cc(C(F)(F)F)n2n1 = 84
• O=C(CSc1nc2c(c(=O)[nH]1)CCCC2)Nc1cccc(O)c1 = 68
• Cc1cc(C(F)(F)F)n2nc(-c3ccc(Br)cc3)cc2n1 = 66
• Cc1cccc(NC(=O)CSc2cn(CC(=O)N3CCOCC3)c3ccccc23)c1C = 64
• CCC(C)NC(=O)C1CCCN(S(=O)(=O)c2ccc(C)c(Cl)c2)C1 (stereo not given) = 94
• COc1ccccc1CNC(=O)CCC1N=C2c3ccccc3N=C(SCC(=O)Nc3ccc(F)cc3)N2C1=O (stereo not given) = 84
• Cc1ccc(-c2cc(C(F)(F)F)n3nc(C(=O)Nc4sc5c(c4C#N)CCC(C)C5)cc3n2)cc1 (stereo not given) = 95
• CC(=O)c1cccc(NC(=O)c2cc3nc(-c4ccc(Br)cc4)cc(C(F)(F)F)n3n2)c1 = 49
• COc1ccc(-c2cc3nc(-c4ccc(Br)cc4)cc(C(F)(F)F)n3n2)cc1 = 51

Field: next compound
Fill in: DeltatarO mutant survival for "CCCNC(=O)c1cc2nc(-c3ccc(Br)cc3)cc(C(F)(F)F)n2n1" = 51
